- test_system: Substance-P receptor (Rattus norvegicus, UniProt P14600)
- Sequence (P14600 whole entry): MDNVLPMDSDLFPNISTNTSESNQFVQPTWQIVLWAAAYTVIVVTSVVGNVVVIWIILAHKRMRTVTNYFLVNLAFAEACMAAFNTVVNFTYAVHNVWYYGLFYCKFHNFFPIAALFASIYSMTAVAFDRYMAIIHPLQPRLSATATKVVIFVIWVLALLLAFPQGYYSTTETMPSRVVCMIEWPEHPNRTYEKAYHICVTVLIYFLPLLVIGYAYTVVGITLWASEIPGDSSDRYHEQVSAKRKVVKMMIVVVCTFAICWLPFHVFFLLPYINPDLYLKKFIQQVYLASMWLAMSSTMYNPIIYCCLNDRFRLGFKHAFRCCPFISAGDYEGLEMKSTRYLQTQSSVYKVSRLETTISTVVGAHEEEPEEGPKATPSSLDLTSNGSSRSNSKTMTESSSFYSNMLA
- assay_protocol: Displacement of [3H]-substance P from rat NK1 receptor transfected in CHO cells
Non-standard residues stand in square brackets, D forms with d. Residues, ends and D or L forms follow the SMILES beside them. *: point of attachment. OBzl(3,5-(CF3)2) = FC(F)(F)c1cc(CO*)cc(C(F)(F)F)c1
readout_kind: Ki (nM)

INSERT INTO assay_data (compound, unit_symbol, measurement) VALUES
  ('C[C@@H](NC(=O)[C@@H](N)Cc1ccc(O)cc1)C(=O)NCC(=O)N[C@@H](Cc1c[nH]c2ccccc12)C(=O)OCc1cc(C(F)(F)F)cc(C(F)(F)F)c1 (H-Y[dA]GW-{OBzl(3,5-(CF3)2)})', 'nM', 15),
  ('C[C@@H](NC(=O)[C@@H](N)Cc1ccc(O)cc1)C(=O)N[C@@H](Cc1c[nH]c2ccccc12)C(=O)OCc1cc(C(F)(F)F)cc(C(F)(F)F)c1', 'nM', 2.9),
  ('C[C@@H](NC(=O)[C@@H](N)Cc1ccc(O)cc1)C(=O)NCC(=O)N[C@@H](Cc1ccc(F)cc1)C(=O)OCc1cc(C(F)(F)F)cc(C(F)(F)F)c1', 'nM', 230);
